The measurements presented in this section are drawn from ChEMBL document CHEMBL4665765.

assay: Therapeutic index, ratio of EC50 for cytotoxicity against human BJ cells to EC50 for antimalarial activity against Plasmodium falciparum 3D7; format: toxicity, cell-based; details: read-out: Ratio EC50
selectivity ratio for assorted compounds
parameter: selectivity ratio

>>> print(df.to_string())
                                   compound          parameter  result_number
0  Clc1ccc2[nH]c3c(c2c1)CCNC3c1ccccc1 (centres undefined)  selectivity ratio             14
1  Oc1cccc(C2NCCc3c2[nH]c2ccc(Cl)cc32)c1 (centres undefined)  selectivity ratio              3
2  Cc1ccc(C2NCCc3c2[nH]c2ccc(Cl)cc32)cc1 (centres undefined)  selectivity ratio              1
3  Clc1ccc2[nH]c3c(c2c1)CCNC3c1ccc2ccccc2c1 (centres undefined)  selectivity ratio              1
